Biological target: FGF14:Nav1.6 C-tail complex (Homo sapiens, UniProt Q92915+Q9UQD0)
Construct: polymerase chain reaction (PCR) amplification of the FGF14 open reading frame (nt 1–855); C-terminal fragment of Nav1.6 (amino acids 1763–1976) fused with CD4ΔC-tail (amino acids 1–395); expressed in transfected cells
Sequence (Q92915 1-252 isoform Q92915-2): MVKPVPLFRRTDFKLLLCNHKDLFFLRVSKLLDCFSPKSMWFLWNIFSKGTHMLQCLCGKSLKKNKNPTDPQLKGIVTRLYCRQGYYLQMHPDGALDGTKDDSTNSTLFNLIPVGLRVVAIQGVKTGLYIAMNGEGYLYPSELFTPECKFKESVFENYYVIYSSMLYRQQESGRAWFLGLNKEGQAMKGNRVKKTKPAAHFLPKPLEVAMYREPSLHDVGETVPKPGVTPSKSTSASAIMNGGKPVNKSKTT
Sequence (Q9UQD0 1763-1976 limits assumed): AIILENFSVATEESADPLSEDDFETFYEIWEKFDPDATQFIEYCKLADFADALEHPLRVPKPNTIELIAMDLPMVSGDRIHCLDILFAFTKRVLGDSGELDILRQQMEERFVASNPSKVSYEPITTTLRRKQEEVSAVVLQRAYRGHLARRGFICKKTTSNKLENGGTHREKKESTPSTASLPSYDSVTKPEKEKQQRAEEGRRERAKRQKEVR
Assay: Split-luciferase complementation assay (LCA) in Clone V double stable HEK293 cells
Type: cell-based
Structures can show the parent of a compound that is named as a salt.
ENDPOINT: Split Luciferase Assay %Lum Set 2 (%)
A number alone suffices; assume %.

Task: Recorded Split Luciferase Assay %Lum Set 2 for O=P1(N(CCCl)CCCl)NCCCO1 (centres unmarked) [Cyclophosphamide] , please?
Result: 117.56

Task: Given CC1=C2C[C@H]3[C@@H](CC=C4C[C@@H](O)CC[C@@]43C)[C@@H]2CC[C@]12O[C@@H]1C[C@H](C)CN[C@H]1[C@H]2C [CYCLOPAMINE] , state its recorded Split Luciferase Assay %Lum Set 2.
Result: 104.03

Task: Need Split Luciferase Assay %Lum Set 2, item C[S+]([O-])c1ccc(-c2nc(-c3ccncc3)c(-c3ccc(F)cc3)[nH]2)cc1 (centres unmarked) [SB 203580, reference compound]
Result: 166.45

Task: Reported Split Luciferase Assay %Lum Set 2, compound OC[C@H]1O[C@@H](n2cnc3c2NC=NC[C@H]3O)C[C@@H]1O [Pentostatin] : ____
Result: 146.68

Task: # get_value(readout='Split Luciferase Assay %Lum Set 2', item= O=NN(CCCl)C(=O)NCCCl [Carmustine] )
Result: 102.99

Task: Report Split Luciferase Assay %Lum Set 2 for Oc1ncc(N(CCCl)CCCl)c(O)n1 [Uracil mustard] please.
Result: 72.82

Task: Value lookup for Split Luciferase Assay %Lum Set 2; key = C=C1C[C@@H]2[C@H](CC[C@]3(C)C(=O)CC[C@@H]23)[C@@]2(C)C=CC(=O)C=C12 [Exemestane]
Result: 96.75

Task: Reported Split Luciferase Assay %Lum Set 2, compound O=NN(CCCl)C(=O)NC1CCCCC1 [Lomustine] : ____
Result: 131.08

Task: # lookup: Split Luciferase Assay %Lum Set 2 of CCCS(=O)(=O)Nc1ccc(F)c(C(=O)c2c[nH]c3ncc(Cl)cc23)c1F [PLX4720, reference compound]
Result: 42.65

Task: Sample C[C@]12CC[C@@H]3c4ccc(OC(=O)N(CCCl)CCCl)cc4CC[C@H]3[C@@H]1CC[C@@H]2OP(=O)(O)O [Estramustine phosphate sodium] — what was its Split Luciferase Assay %Lum Set 2?
Result: 38.49

Task: Data request, read-out Split Luciferase Assay %Lum Set 2, for CC[C@H](CO)Nc1nc(NCc2ccccc2)c2ncn(C(C)C)c2n1 [Roscovitine]
Result: 46.81

Task: Consider the compound shown here: CC/C(=C(\c1ccccc1)c1ccc(OCCN(C)C)cc1)c1ccccc1 [Tamoxifen citrate] What is its recorded Split Luciferase Assay %Lum Set 2?
Result: 1.04

Task: # get_value(readout='Split Luciferase Assay %Lum Set 2', item= C1CN1c1nc(N2CC2)nc(N2CC2)n1 [Triethylenemelamine] )
Result: 116.51

Task: Any idea what its Split Luciferase Assay %Lum Set 2 is? The compound is S=P(N1CC1)(N1CC1)N1CC1 [Thiotepa]
Result: 125.88
